- experimental_target: T1, cynomolgus TfR ECD (cynomolgus)
- T1 chain: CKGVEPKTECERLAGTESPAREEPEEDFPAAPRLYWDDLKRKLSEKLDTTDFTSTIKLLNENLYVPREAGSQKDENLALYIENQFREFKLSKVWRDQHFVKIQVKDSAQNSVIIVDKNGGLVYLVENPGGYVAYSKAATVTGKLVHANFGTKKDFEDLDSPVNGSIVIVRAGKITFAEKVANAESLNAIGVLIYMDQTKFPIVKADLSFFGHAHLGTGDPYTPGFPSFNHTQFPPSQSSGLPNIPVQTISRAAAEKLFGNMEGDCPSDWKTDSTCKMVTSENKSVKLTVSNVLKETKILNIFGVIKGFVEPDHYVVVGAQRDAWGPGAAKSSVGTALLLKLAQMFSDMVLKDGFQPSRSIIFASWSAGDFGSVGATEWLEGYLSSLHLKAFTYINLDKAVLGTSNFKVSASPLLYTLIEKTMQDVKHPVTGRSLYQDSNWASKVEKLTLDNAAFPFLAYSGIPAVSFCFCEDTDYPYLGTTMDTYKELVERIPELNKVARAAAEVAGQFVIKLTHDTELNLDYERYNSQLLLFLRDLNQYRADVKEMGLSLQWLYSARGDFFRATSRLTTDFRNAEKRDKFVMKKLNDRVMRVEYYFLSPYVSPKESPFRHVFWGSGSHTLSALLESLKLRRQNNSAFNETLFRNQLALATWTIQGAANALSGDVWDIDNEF
- procedure_details: SPR (Biacore 8K), 25 C; His-tagged TfR ECD captured by anti-His antibody, TBP as analyte; single-cycle kinetics, 2-state fit

binder	Kd (nM)
TBP3 (TBD3 Fab-hIgG4PAA Fc) (antibody, V domains shown, Fab-Fc format, one HC and one LC) VH: EVQLVESGGGLVKPGGSLRLSCVASGFTFSSYSMNWVRQAPGKGLEWVSSISRSSSYIYYADSVKGRFTISRDNAKNSLYLQMNSLRAEDTAVYYCARIHGYSNSDAFDIWGQGTLVTVSS VL: DIQMTQSPSAMSASVGDRVTITCRASQGISHYLVWFQQKPGKVPKRLIYAASSLQSGVPSRFSGSGSGTEFTLTISSLQPEDFATYYCLQHNSYPRTFGQGTKVEIKR	0.015
TBP6 (TBD6 Fab-hIgG4PAA Fc) (antibody, V domains shown, Fab-Fc format, one HC and one LC) VH: EVQLVESGGGLVQPGGSLRLSCAASGFTFRTYWMHWVRQAPGKGLVWVSRINSDGSRTNYADSVKGRFTISRDNAKNTLYLQMNSLRAEDTAVYYCARSSYAFDVWGQGTLVTVSS VL: DIVMTQTPLSLPVTPGEPASISCRSSQSLLDSDDGSTYLDWYLQKPGQSPQLLIYLLSNRASGVPDRFSGSGSGTDFTLKISRVEAEDVGVYYCMQRIEFPLTFGGGTKVEIKR	7.7
TBP5 (TBD5 Fab-hIgG4PAA Fc) (antibody, V domains shown, Fab-Fc format, one HC and one LC) VH: EVQLVESGGGLVQPGGSLRLSCAASGFTFRTYWMHWVRQAPGKGLLWVSRINGDGSRTNYADSVKGRFTISRDNAKKTLYLQMNSLRAEDTAVYFCARSSYAFDVWGQGTMVTVSS VL: DVVMTQTPLSLPVTPGEPASISCRSSQSLLDSDDGSTYLDWYLQKPGQSPQLLIYLLSNRASGVPDRFSGSGSGTVFTLKISSVEAADVGVYYCMQRIEFPLTFGGGTKVEIKR	1.47
TBP1 (TBD1 Fab-hIgG4PAA Fc) (antibody, V domains shown) VH: EVQLVESGGGLVKPGGSLRLSCVASGFTFSSYSMNWVRQAPGKGLEWVSSISRSSSYIYYADSVKGRFTISRDNAKNSLYLQMNSLRAEDTAVYYCAREHGYSNSDAFDIWGQGTLVTVSS VL: DIQMTQSPSAMSASVGDRVTITCRASQGISNYLAWFQQKPGKVPKRLIYAASSLQSGVPSRFSGSGSGTEFTLTISSLQPEDFATYYCLQHNSYPRTFGQGTKVEIKR	145
